ASSAY_TARGET: Histone deacetylase 1 (Homo sapiens, UniProt Q13547)
Sequence (Q13547 whole entry): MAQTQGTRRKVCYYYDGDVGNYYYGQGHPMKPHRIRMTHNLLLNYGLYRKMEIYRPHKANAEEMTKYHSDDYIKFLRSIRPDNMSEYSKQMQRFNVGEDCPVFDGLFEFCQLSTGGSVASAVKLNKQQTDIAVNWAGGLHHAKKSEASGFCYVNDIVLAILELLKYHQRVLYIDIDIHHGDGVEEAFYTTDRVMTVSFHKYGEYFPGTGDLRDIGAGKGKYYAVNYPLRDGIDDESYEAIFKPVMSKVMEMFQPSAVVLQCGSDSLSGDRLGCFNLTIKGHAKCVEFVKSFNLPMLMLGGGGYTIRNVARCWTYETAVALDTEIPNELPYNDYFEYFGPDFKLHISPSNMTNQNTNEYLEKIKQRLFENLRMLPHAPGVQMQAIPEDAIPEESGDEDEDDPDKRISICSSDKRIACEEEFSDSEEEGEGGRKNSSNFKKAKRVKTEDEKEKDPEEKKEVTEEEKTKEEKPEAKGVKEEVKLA
PROTOCOL: Inhibition of human HDAC1 expressed in 293T cells
pIC50: −log10 of the molar value.
METRIC_NAME: pIC50

The cases that follow already have their pIC50 on record.
{"columns": ["LINE_NOTATION", "pIC50"],
 "data": [
  ["CC1(C)NC(=O)[C@H](CCCCCSSc2ccccn2)NC(=O)[C@H]2CCCN2C(=O)[C@H](CCc2ccccc2)NC1=O", 8.21],
  ["CC1(C)NC(=O)[C@H](CCCCCSSc2ccccn2)NC(=O)[C@H]2CCCN2C(=O)[C@H](CO)NC1=O", 8.19],
  ["C[C@@H]1NC(=O)C2(Cc3ccccc3C2)NC(=O)[C@H](CCCCCSSc2ccccn2)NC(=O)[C@H]2CCCN2C1=O", 8.70],
  ["C[C@@H]1NC(=O)C(C)(C)NC(=O)[C@H](CCCCCSSc2ccccn2)NC(=O)[C@H]2Cc3ccccc3CN2C1=O", 8.33],
  ["CC1(C)NC(=O)[C@H](CCCCCSSc2ccccn2)NC(=O)[C@H]2CCCN2C(=O)[C@H](CCCc2ccccc2)NC1=O", 8.28]
]}

1: C[C@@H]1NC(=O)[C@@](C)(Cc2ccccc2)NC(=O)[C@H](CCCCCSSc2ccccn2)NC(=O)[C@H]2CCCN2C1=O
2: C[C@@H]1NC(=O)C(C)(C)NC(=O)[C@H](CCCCCSSc2ccccn2)NC(=O)[C@H]2CCCN2C1=O
Endpoint returns whichever of 1 and 2 has the numerically higher pIC50. Record your answer as the label of the chosen record.
2
(2: 8.03, 1: 6.77)
